Biological target: T1, MtrAC (MtrA DNA-binding domain) (UniProt P9WGM7 131-228)
T1 sequence: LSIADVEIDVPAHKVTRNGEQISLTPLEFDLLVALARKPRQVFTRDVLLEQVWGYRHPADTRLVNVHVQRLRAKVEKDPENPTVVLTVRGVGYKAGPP
Assay: fluorescence polarization
Readout label: Kd (µM)
Respond with the bare value in µM.

# Kd (binder: dnaA promoter DNA (dsDNA) DNA 1: GGCGGTGTAGTTATCACGCCGTTT DNA 2: AAACGGCGTGATAACTACACCGCC ) is 1.23

Where these numbers come from: paper PMC11016868
